experiment: small-molecule binders of probe aInhba, primary screen, biochemical, small-molecule microarray, 635/667 nm fluorescence (AID 1148); settings: higher = more signal;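 further: score merges 667nm spot fluorescence with signal-to-noise for antibody binding to printed compounds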
composite z-score values for the molecules below.
Write no unit; give the number alone.

Given item CC(c1ccccc1)C(O)C1C=CC2C(=O)N(c3ccccc3)C(=O)C2N1Nc1ccc([N+](=O)[O-])cc1 (configuration not stated) , the value recorded as its composite z-score is 0.118

Quick note, composite z-score for `C=CCNC(=O)[C@@H]1[C@H]2C(=O)O[C@H](c3ccccc3)[C@H](c3ccccc3)N2[C@H](c2ccc(O)cc2)[C@@]12C(=O)N(C(=O)OCCOC)c1ccc(C#CC3(O)CCCCCC3)cc12` landed at -0.204

Entry under test: `C=CCOC(=O)[C@H]1[C@@H]2C(=O)O[C@@H](c3ccccc3)[C@@H](c3ccccc3)N2[C@@H](c2ccc(OCCOC(=O)[C@@H]3C[C@@H]4C(=O)N[C@@H](CCCCN(C)C)C(=O)N4[C@@H]3c3ccc(O)cc3)cc2)[C@]12C(=O)Nc1ccccc12` . Its composite z-score was -0.0468

Note to self: composite z-score recorded for OCCCC1=CC(c2ccc(CN3CCCC3)cc2)N(Cc2sc3ccccc3c2Cl)CC1 (configuration not stated) was 0.0633

composite z-score measured on `CCOC(=O)C1=CC[C@@H](c2cccc(Cl)c2)N(S(=O)(=O)c2ccc(C)cc2)C1` = 0.0173

`CN(C)C(=O)[C@]1(CCS(=O)(=O)c2ccccc2)N=C(c2ccc(OCCCO)cc2)O[C@@H]1c1ccccc1N=[N+]=[N-]` has a reported composite z-score of 0.246

Form field composite z-score, entry `COCCOC(=O)N1C(=O)[C@@]2(c3ccccc31)[C@H](C(=O)N1CCN(c3ncccn3)CC1)[C@H]1C(=O)O[C@H](c3ccccc3)[C@H](c3ccccc3)N1[C@@H]2c1ccc(O)cc1` : -0.41

* * *

experiment: P. aeruginosa biofilm formation inhibitors, primary screen, strain PAO1, LB-PBS medium, absorbance 600 nm (AID 1176); further: test concentration not given here; details: P. aeruginosa PAO1 growth/biofilm, A600, 12 h; higher = more signal
Please mark Y if the recorded z-score is equal to or greater than 0.6, and N if it falls below.

Consider the following illustrative entries.
CC(C)(C)OC(=O)CC[C@]1(C(=O)NCC(O)CO)N=C(c2ccc(OCCCO)cc2)O[C@H]1c1ccccc1 (some centres not stated); Y
O=C(NCc1ccccc1)[C@@H]1c2ccccc2C(=O)N(Cc2ccccc2C(F)(F)F)[C@H]1c1ccc(CO)cc1; Y
CC(C)(C)OC(=O)CC[C@]1(C(=O)NCc2ccccc2)N=C(c2ccc(OCCCO)cc2)O[C@H]1c1ccccc1CN=[N+]=[N-]; Y

# bool: z-score of `O=C(NCC(F)(F)F)[C@@H]1c2ccccc2C(=O)N(Cc2cc(F)cc(C(F)(F)F)c2)[C@H]1c1ccc(CO)cc1` >= 0.6 N

Please indicate if the recorded z-score for `O[C@@H](Cc1ccccc1)[C@@H](/C=C/C1CC1)N(CC#Cc1ccccc1)Cc1cccc(Cl)c1` meets or exceeds 0.6. N

* * *

experiment: anti-His antibody binders, primary screen, artefact control for SMM control protein annotation, biochemical, small-molecule microarray, 635 nm fluorescence (AID 1128); conditions: anti-His Alexa647 antibody binding, higher = more signal;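 further: score merges feature fluorescence with signal-to-noise for each printed compound spot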
Assign MET to entries whose composite z-score meets or exceeds 1; assign NOT MET to the rest.

C=CCC(OC(C)=O)[C@@H]1[C@@H](N(Cc2cccc3ccccc23)C(=O)Cc2ccc(OC)cc2)c2cc(OCCCO)ccc2N1C(=O)c1ccc2ccccc2n1 (stereo partly drawn); NOT MET

Is composite z-score for `C[N+](C)(C)CCCCCCNC(=O)[C@H]1C[C@H]2C(=O)NCC(=O)N2[C@H]1c1ccc(O)cc1` at or above 1? MET

Hello, I need to know if `CCOC(=O)C[C@H]1[C@H](OC(=O)Cc2ccc3c(c2)OCO3)[C@@H](NC(=O)Cc2ccc(OC)cc2)c2cc(OCCCO)ccc2N1C(=O)c1ccc2ccccc2n1` has measured composite z-score not below 1. Thanks! NOT MET

Has `COC(=O)[C@@]1(Cc2ccc(OC)cc2)[C@H]2c3cc(C(=O)N(C)C)n(Cc4ccc(Cl)c(C(F)(F)F)c4)c3C[C@H]2CN1C(=O)c1ccccc1` a recorded composite z-score greater than or equal to 1? MET

Decide: composite z-score of O=C1NC(=O)C2C1C=CC(C(O)c1ccco1)N2Nc1ccccn1 (stereo not drawn) >= 1? NOT MET

Evaluate `[N-]=[N+]=NCc1ccccc1C[C@@]1(C(=O)N2CCOCC2)N=C(c2ccc(OCCCO)cc2)O[C@@H]1c1ccccc1` : composite z-score at minimum 1? MET

Kindly determine if composite z-score recorded for CN1C(=O)C2C=CC(C(O)c3ccc(F)cc3)N(Nc3ccccc3)C2C1=O (stereo not drawn) is above or exactly 1. MET

Does the reported composite z-score for `COCCCNC(=O)[C@]1(CCS(=O)(=O)c2ccccc2)N=C(c2ccc(OCCCO)cc2)O[C@@H]1c1ccccc1CN=[N+]=[N-]` fall at or above the 1 mark? MET

Please tell me: is the compound O=C1OCC=C[C@H]2OC34C=CCN(Cc5ccccc5)C(=O)[C@H]3N(CCCCCCO)C(=O)[C@@H]4[C@@H]12 (stereo partly drawn) at or over 1 in terms of composite z-score? MET

Please indicate if the recorded composite z-score for `Cc1ccc(S[C@]2(C(=O)NCC(F)(F)F)CC(=O)N(Cc3ccccc3C(F)(F)F)[C@@H]2c2ccc(CO)cc2I)cc1` meets or exceeds 1. NOT MET

Reported composite z-score reaches at least 1 for `CCOC(=O)C[C@H]1[C@H](OC(=O)c2cc3ccccc3oc2=O)[C@@H](NC(=O)c2ccc(-c3ccccc3)cc2)c2cc(OCCCO)ccc2N1C(=O)c1ccc2ccccc2n1` ? MET

Evaluate `COC(=O)c1c(CC[C@@H](CO)NC(=O)N[C@H](Cn2cc(C3(O)CCCCC3)nn2)C(C)C)oc(C(C)=O)c1C(=O)OC` : composite z-score at minimum 1? MET

Could you tell me if the measured composite z-score of `C=C(/C(=C/C[C@@H](OC(C)=O)c1cccc(OCCO)c1)c1cc(C(=O)OC)ccc1OC)C(C)C` reaches 1 or more? NOT MET

Does composite z-score meet or surpass 1 for `COC(=O)c1cn(C[C@@H](Cc2ccccc2)NC(=O)N[C@H](CO)CCc2oc(C(C)=O)c(C(=O)OC)c2C(=O)OC)nn1` ? MET

Entry `C=CC[C@]1(C(=O)NCCN2CCOCC2)N=C(c2ccc(OCCCO)cc2)O[C@H]1c1ccccc1CN=[N+]=[N-]` : is its composite z-score no less than 1? NOT MET

Entry `COC(=O)C(CC#Cc1ccc2c(c1)[C@]1(C(=O)N2)[C@H](c2ccccc2OCCO)N2[C@H](c3ccccc3)[C@H](c3ccccc3)OC(=O)[C@H]2[C@@H]1C(=O)NC[C@H](O)c1ccccc1)C(=O)OC` : is its composite z-score no less than 1? MET

Data credit: PubChem BioAssay
